# target_under_test: T1, human CD3 epsilon (Acro Cat #CDE-H5223) (human, UniProt P07766 23-126)
# T1 construct: Bought recombinant protein; also called rhCD3E
# experiment: SPR (Biacore), antibody captured, human CD3 epsilon analyte
# Method: Anti-Fab or anti-Fc polyclonal antibodies were immobilized onto a CM5 chip (GE Life Sciences) using amine coupling chemistry (from Amine Coupling Kit, GE Life Sciences). […] The data was fit with the Biacore T200 Evaluation software, using a 1-1 Langmuir binding model. KD (affinity, nM) was determined as a ratio of the kinetic rate constants calculated from the fits of the association and dissociation phases.
Below, each entry is listed with its recorded pKd.
Scale for pKd: -log10 of concentration given in mol/L; no unit attached.

2037-B10_Hc-K31D (antibody, human IgG1, lambda, V domains shown, human IgG1, lambda; also called SRP 2037 K31D; 2037-B10_VH-K31D) VH: EVQLVESGGGLVKPGGSLRLSCAASGFTFNDYAMNWVRQAPGKGLEWVARIRTKYNNYATYYADSVKDRFTISRDDSKNTAYLQMNSLKTEDTAVYYCVRHGNFGNSYISYWAYWGQGTPVTVSS VL: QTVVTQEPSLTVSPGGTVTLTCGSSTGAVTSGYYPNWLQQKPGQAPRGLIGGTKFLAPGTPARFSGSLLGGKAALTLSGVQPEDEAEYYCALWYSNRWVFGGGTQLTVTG : 8.86
2037-B10_Hc-K54D (antibody, human IgG1, lambda, V domains shown, human IgG1, lambda; also called SRP 2037 K54D; 2037-B10_VH-K54D) VH: EVQLVESGGGLVKPGGSLRLSCAASGFTFNKYAMNWVRQAPGKGLEWVARIRTDYNNYATYYADSVKDRFTISRDDSKNTAYLQMNSLKTEDTAVYYCVRHGNFGNSYISYWAYWGQGTPVTVSS VL: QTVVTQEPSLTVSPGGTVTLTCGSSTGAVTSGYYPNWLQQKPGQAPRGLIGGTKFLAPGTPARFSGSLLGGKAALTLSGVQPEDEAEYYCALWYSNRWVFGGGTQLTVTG : 9.07

Let us move to another entry and its pKd.
*Q* Identify pKd associated with the binder 2037-B10_Hc-F104D (antibody, human IgG1, lambda, V domains shown, human IgG1, lambda; also called SRP 2037 F104D; 2037-B10_VH-F104D) VH: EVQLVESGGGLVKPGGSLRLSCAASGFTFNKYAMNWVRQAPGKGLEWVARIRTKYNNYATYYADSVKDRFTISRDDSKNTAYLQMNSLKTEDTAVYYCVRHGNDGNSYISYWAYWGQGTPVTVSS VL: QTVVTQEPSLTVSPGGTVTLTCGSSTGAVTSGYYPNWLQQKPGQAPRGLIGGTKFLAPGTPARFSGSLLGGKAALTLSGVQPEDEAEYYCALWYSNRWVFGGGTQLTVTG
*A* 8.11
